Where do the numbers come from? From the RNAGym collection of RNA variant scans (doi:10.1093/molbev/msab373).

B1: Azoarcus group I ribozyme (parent)
chain: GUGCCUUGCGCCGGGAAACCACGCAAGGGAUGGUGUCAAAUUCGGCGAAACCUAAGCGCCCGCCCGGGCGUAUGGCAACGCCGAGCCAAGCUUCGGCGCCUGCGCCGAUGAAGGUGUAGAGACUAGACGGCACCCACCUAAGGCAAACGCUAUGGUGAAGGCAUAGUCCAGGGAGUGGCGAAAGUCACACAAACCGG

variants of: B1; assay: reverse-splicing fitness (ratio to wild type); higher = more active; in vitro selection; Mg2+ level not given
Lab note: compare reverse-splicing fitness against 0.01. Equal or greater, write 1.0. Smaller, write 0.0.

[
  {
    "Mutation Notation": "C82U A111G C150G U176C",
    "Class Label": 1.0
  },
  {
    "Mutation Notation": "A111C A145G C150G C169G U176A",
    "Class Label": 0.0
  },
  {
    "Mutation Notation": "C82A A111G A120C A145U C169G U176A",
    "Class Label": 1.0
  },
  {
    "Mutation Notation": "C82U A111C A120C A145U C150A U176C",
    "Class Label": 1.0
  },
  {
    "Mutation Notation": "C82A A111C A120G A145G",
    "Class Label": 1.0
  },
  {
    "Mutation Notation": "C82A A111G A120G A145G C150U C169G U176G",
    "Class Label": 0.0
  },
  {
    "Mutation Notation": "C82U A111G A120C A145G C169A U176G",
    "Class Label": 0.0
  },
  {
    "Mutation Notation": "C82U A111U A120U A145G C150G C169U",
    "Class Label": 0.0
  },
  {
    "Mutation Notation": "A111U A145C C150G C169U U176C",
    "Class Label": 1.0
  },
  {
    "Mutation Notation": "C82U A120G A145U C150A C169U U176A",
    "Class Label": 1.0
  },
  {
    "Mutation Notation": "C82U A111U A120G A145U C150G U176A",
    "Class Label": 0.0
  },
  {
    "Mutation Notation": "C82G A111U A120U A145U C150U C169A U176A",
    "Class Label": 0.0
  },
  {
    "Mutation Notation": "C82G A111U A120C A145U C169U U176C",
    "Class Label": 1.0
  },
  {
    "Mutation Notation": "C82A A111U A120G U176G",
    "Class Label": 0.0
  },
  {
    "Mutation Notation": "A120C A145C U176A",
    "Class Label": 1.0
  },
  {
    "Mutation Notation": "C82G A111U C150A C169G U176C",
    "Class Label": 1.0
  },
  {
    "Mutation Notation": "C82A A111G A120C A145U C150U C169G U176G",
    "Class Label": 0.0
  },
  {
    "Mutation Notation": "C82G A111C C150U C169A U176C",
    "Class Label": 1.0
  },
  {
    "Mutation Notation": "C82G A111C A120C A145C C150G C169A U176A",
    "Class Label": 0.0
  },
  {
    "Mutation Notation": "C82G A111C C169G U176A",
    "Class Label": 1.0
  },
  {
    "Mutation Notation": "C82A A111G A145U C169G",
    "Class Label": 0.0
  },
  {
    "Mutation Notation": "C82G A111C A120C A145G C150A C169G U176C",
    "Class Label": 1.0
  },
  {
    "Mutation Notation": "C82U A111G A120C C169U U176C",
    "Class Label": 1.0
  },
  {
    "Mutation Notation": "C82G A111U A120G C150U C169U U176A",
    "Class Label": 1.0
  },
  {
    "Mutation Notation": "C82A A120U C150U C169A",
    "Class Label": 0.0
  },
  {
    "Mutation Notation": "A111G A120U A145C C169G U176A",
    "Class Label": 0.0
  },
  {
    "Mutation Notation": "C82G A111C A120G C150A C169G U176A",
    "Class Label": 1.0
  },
  {
    "Mutation Notation": "A120C A145U C150A C169U U176G",
    "Class Label": 0.0
  },
  {
    "Mutation Notation": "A111U A120G A145C C150U C169G U176C",
    "Class Label": 1.0
  },
  {
    "Mutation Notation": "C82A A120U A145U C150A C169G",
    "Class Label": 0.0
  },
  {
    "Mutation Notation": "C82U A111C A145C C150G C169G U176C",
    "Class Label": 0.0
  },
  {
    "Mutation Notation": "C82U A111C A120C A145G C150A C169G U176G",
    "Class Label": 0.0
  },
  {
    "Mutation Notation": "C82G A111C A120U C150U C169U U176G",
    "Class Label": 0.0
  },
  {
    "Mutation Notation": "C82A A120G C150G C169A U176G",
    "Class Label": 0.0
  },
  {
    "Mutation Notation": "C82A A111G A120U A145U C150G C169G",
    "Class Label": 0.0
  },
  {
    "Mutation Notation": "C82G A120U A145U C150A U176G",
    "Class Label": 0.0
  },
  {
    "Mutation Notation": "C82U A111G A120U A145G C150A C169U U176G",
    "Class Label": 0.0
  },
  {
    "Mutation Notation": "A111U C169U",
    "Class Label": 1.0
  },
  {
    "Mutation Notation": "A111U A120U C169A U176A",
    "Class Label": 0.0
  },
  {
    "Mutation Notation": "C82U A120C C150A U176A",
    "Class Label": 1.0
  },
  {
    "Mutation Notation": "C82A A111U A145G C150U C169U",
    "Class Label": 1.0
  },
  {
    "Mutation Notation": "C82A A111C A120G A145U C150G C169G",
    "Class Label": 0.0
  },
  {
    "Mutation Notation": "C82A A111U A120C A145G C150G C169A",
    "Class Label": 0.0
  },
  {
    "Mutation Notation": "C82A A111C A120U A145U C150G C169G U176G",
    "Class Label": 0.0
  },
  {
    "Mutation Notation": "C150A U176G",
    "Class Label": 1.0
  },
  {
    "Mutation Notation": "A120C C150A U176G",
    "Class Label": 1.0
  },
  {
    "Mutation Notation": "C82A A120G C169A",
    "Class Label": 1.0
  },
  {
    "Mutation Notation": "C82A A111G A120G C150G",
    "Class Label": 0.0
  },
  {
    "Mutation Notation": "C82U A111G A120G C150A C169A U176G",
    "Class Label": 0.0
  },
  {
    "Mutation Notation": "C82G A111G A120U",
    "Class Label": 1.0
  },
  {
    "Mutation Notation": "C82G A111U A120C A145C U176A",
    "Class Label": 1.0
  },
  {
    "Mutation Notation": "C82U A145U C150U C169U U176A",
    "Class Label": 1.0
  },
  {
    "Mutation Notation": "C82G A111U A145U C169U U176G",
    "Class Label": 0.0
  },
  {
    "Mutation Notation": "C82G C150A C169U U176C",
    "Class Label": 1.0
  },
  {
    "Mutation Notation": "C82U A111C A145U C150A C169G",
    "Class Label": 0.0
  },
  {
    "Mutation Notation": "C82U A111U A120C C150U C169G U176A",
    "Class Label": 1.0
  },
  {
    "Mutation Notation": "C82U A145G C150G C169A",
    "Class Label": 0.0
  },
  {
    "Mutation Notation": "A111C A120C A145C C150A C169A",
    "Class Label": 0.0
  },
  {
    "Mutation Notation": "A111C A120C A145C C169A U176A",
    "Class Label": 1.0
  },
  {
    "Mutation Notation": "C82A A111C A120U A145C C169A U176A",
    "Class Label": 0.0
  },
  {
    "Mutation Notation": "C82G A145U C150A C169U U176G",
    "Class Label": 0.0
  },
  {
    "Mutation Notation": "A111G A120U A145C C150G C169U",
    "Class Label": 1.0
  },
  {
    "Mutation Notation": "A111U A145C C150A C169A U176G",
    "Class Label": 0.0
  },
  {
    "Mutation Notation": "C82U A120G A145U C169U",
    "Class Label": 1.0
  },
  {
    "Mutation Notation": "A120G C150A C169U",
    "Class Label": 1.0
  },
  {
    "Mutation Notation": "C82G A111C C150G",
    "Class Label": 1.0
  },
  {
    "Mutation Notation": "C82G A111C A120U A145U C150G C169G U176A",
    "Class Label": 0.0
  },
  {
    "Mutation Notation": "C82A A111U A120C A145C C150U C169U",
    "Class Label": 1.0
  },
  {
    "Mutation Notation": "A111C A120U A145G C150G",
    "Class Label": 1.0
  },
  {
    "Mutation Notation": "C82G A111U A120C A145G C169U",
    "Class Label": 1.0
  },
  {
    "Mutation Notation": "A111G A145U C150A U176C",
    "Class Label": 1.0
  },
  {
    "Mutation Notation": "C82A A111U A120U A145G C150A C169U",
    "Class Label": 0.0
  },
  {
    "Mutation Notation": "C82A A111U A120U A145C C169G U176G",
    "Class Label": 0.0
  },
  {
    "Mutation Notation": "C82G A111C A120G C169U",
    "Class Label": 0.0
  },
  {
    "Mutation Notation": "C82A A111G C169G",
    "Class Label": 0.0
  },
  {
    "Mutation Notation": "A111G A120C A145G C150G C169U U176G",
    "Class Label": 0.0
  },
  {
    "Mutation Notation": "C82A A145U C150A C169G U176G",
    "Class Label": 0.0
  },
  {
    "Mutation Notation": "C82A A111C A145G C150U U176A",
    "Class Label": 1.0
  }
]
